Ref: PubChem BioAssay AID1159580

experiment-summary: chemical genetic growth profiling, strain panel (AID 1159580);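 also: tested at 20 µM; growth read once vehicle control cultures reached saturation at 30 °C; lower values mean less growth of the strain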
condition: S. cerevisiae deletion strains, growth OD, locus YDR159W, strain sac3
The campaign covered roughly 5,500 compounds. About 2,000 (36%) were called active. Roughly 18% stayed inconclusive and do not appear here. Rule as the data show it: active = normalized growth mostly below about 0.91 (no sharp cut-off); inconclusive = no clear call, values can overlap the other calls; inactive = mostly above about 0.92. The list shows a part of the results.
Select the matching outcome among active, inactive

Known results for compounds:
{"columns": ["compound", "group"],
 "data": [
  ["CN1CCN(C2=Nc3ccccc3Oc3ccc(Cl)cc32)CC1", "inactive"],
  ["S=P(N1CC1)(N1CC1)N1CC1", "inactive"]
]}

Request: What classification did CCCC(C(=O)OCCN(CC)CC)(c1ccccc1)c1ccccc1 end up with in this test?
Result: inactive

Request: What classification did c1ccc2nc(N3CCNCC3)ccc2c1 end up with in this test?
Result: inactive

Request: What classification did CC[C@H](CCC(C)[C@H]1CCC2C3CCC4C[C@@H](O)CC[C@]4(C)C3CC[C@@]21C)C(C)C (some centres undefined) end up with in this test?
Result: inactive

Request: What classification did c1ccc2c(c1)CN1CCCC1=N2 end up with in this test?
Result: inactive

Request: What classification did C[C@H](CCC(=O)O)[C@H]1CCC2C3C(CC[C@@]21C)[C@@]1(C)CC[C@@H](O)C[C@H]1C[C@@H]3O (some centres undefined) end up with in this test?
Result: inactive

Request: What classification did CNCCCN1c2ccccc2CCc2ccccc21 end up with in this test?
Result: inactive
